Data credit: patent US8962639B2

biological target: human KCNQ2 and KCNQ3 (Homo sapiens, UniProt O43525+O43526); construct: expressed in transfected cells; host or cells: HEK293; test: KCNQ 2/3 channel activation, thallium flux FLIPR assay (BTC-AM dye) in HEK293 cells; format: cell-based; conditions: HEK293, maximum response relative to response of retigabine at 10 μM set at 100%; read-out: Max response
Sequence (O43526 whole entry): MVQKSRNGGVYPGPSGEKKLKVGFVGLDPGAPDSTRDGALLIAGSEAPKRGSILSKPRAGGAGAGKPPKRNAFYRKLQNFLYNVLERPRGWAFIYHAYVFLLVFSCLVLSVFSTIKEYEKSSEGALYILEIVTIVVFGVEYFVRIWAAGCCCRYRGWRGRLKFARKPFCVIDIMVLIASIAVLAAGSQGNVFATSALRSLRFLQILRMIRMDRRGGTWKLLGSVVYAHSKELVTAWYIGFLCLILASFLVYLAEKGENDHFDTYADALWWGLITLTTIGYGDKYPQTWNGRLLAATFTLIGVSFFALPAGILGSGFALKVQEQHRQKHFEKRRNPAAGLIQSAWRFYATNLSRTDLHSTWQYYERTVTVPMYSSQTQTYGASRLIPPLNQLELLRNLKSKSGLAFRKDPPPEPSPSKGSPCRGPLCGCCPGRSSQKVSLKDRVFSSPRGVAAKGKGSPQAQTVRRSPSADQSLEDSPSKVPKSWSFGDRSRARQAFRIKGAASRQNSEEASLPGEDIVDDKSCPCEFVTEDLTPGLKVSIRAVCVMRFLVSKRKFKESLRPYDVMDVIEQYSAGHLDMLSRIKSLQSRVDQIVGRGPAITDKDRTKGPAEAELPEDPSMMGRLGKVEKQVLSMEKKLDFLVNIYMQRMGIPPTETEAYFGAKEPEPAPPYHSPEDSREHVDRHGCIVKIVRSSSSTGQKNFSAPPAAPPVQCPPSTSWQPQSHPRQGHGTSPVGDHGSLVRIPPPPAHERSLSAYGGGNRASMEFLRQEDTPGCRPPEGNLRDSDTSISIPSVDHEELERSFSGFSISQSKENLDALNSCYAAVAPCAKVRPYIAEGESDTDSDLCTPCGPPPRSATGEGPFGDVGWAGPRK
Sequence (O43525 whole entry): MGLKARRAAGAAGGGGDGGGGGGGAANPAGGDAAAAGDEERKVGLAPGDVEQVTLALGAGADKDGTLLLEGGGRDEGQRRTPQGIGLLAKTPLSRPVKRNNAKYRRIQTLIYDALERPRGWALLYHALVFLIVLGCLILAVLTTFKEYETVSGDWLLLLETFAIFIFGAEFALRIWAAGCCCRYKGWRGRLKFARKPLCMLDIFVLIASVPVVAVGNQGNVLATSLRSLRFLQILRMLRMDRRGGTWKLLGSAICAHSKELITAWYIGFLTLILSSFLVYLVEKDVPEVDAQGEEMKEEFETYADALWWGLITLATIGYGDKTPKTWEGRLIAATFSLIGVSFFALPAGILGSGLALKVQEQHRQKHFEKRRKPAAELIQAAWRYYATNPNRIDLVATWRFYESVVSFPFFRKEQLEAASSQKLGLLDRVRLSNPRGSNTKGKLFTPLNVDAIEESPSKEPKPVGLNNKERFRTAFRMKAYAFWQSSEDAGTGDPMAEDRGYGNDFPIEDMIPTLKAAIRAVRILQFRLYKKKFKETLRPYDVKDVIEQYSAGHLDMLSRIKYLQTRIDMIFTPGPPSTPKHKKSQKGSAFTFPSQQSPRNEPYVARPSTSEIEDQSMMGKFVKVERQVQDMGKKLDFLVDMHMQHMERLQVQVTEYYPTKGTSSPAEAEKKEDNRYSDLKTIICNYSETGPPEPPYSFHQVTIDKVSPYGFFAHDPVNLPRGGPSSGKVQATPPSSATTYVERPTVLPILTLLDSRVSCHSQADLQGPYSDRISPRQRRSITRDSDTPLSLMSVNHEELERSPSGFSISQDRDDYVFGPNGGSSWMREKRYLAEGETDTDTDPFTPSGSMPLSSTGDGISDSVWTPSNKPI
Returns one of Yes or No; Yes when Emax is >= 20%.

compound="O=C(Cc1ccc(Cl)cc1)Nn1c(C23CC4CC(CC2C4)C3)nc2ccccc2c1=O [Example 2]" study_system="human KCNQ2 and KCNQ3 (Homo sapiens, UniProt O43525+O43526)" class_name=Yes
compound="O=C(CC12CC3CC(CC(C3)C1)C2)Nn1cnc2ccc(Br)cc2c1=O [Example 36]" study_system="human KCNQ2 and KCNQ3 (Homo sapiens, UniProt O43525+O43526)" class_name=No
compound="CCc1nc2sccc2c(=O)n1NC(=O)CC12CC3CC(CC(Cl)(C3)C1)C2 [Example 52]" study_system="human KCNQ2 and KCNQ3 (Homo sapiens, UniProt O43525+O43526)" class_name=Yes
compound="O=C(CC12CC3CC(CC(Cl)(C3)C1)C2)Nn1c(C2CC2)nc2ccccc2c1=O [Example 51]" study_system="human KCNQ2 and KCNQ3 (Homo sapiens, UniProt O43525+O43526)" class_name=Yes
compound="CC(C)c1nc2ccccc2c(=O)n1NC(=O)[C@@H]1C[C@@H]2C=C[C@H]1C2 (racemic) [Example 31]" study_system="human KCNQ2 and KCNQ3 (Homo sapiens, UniProt O43525+O43526)" class_name=Yes
compound="O=C(Nn1c(-c2ccccc2)nc2ccccc2c1=O)C1C2CC3CC(C2)CC1C3 (centres unmarked) [Example 38]" study_system="human KCNQ2 and KCNQ3 (Homo sapiens, UniProt O43525+O43526)" class_name=No
compound="O=C(CC12CC3CC(CC(C3)C1)C2)Nn1cnc2sc(-c3ccccc3)cc2c1=O [Example 37]" study_system="human KCNQ2 and KCNQ3 (Homo sapiens, UniProt O43525+O43526)" class_name=No
compound="CC(C)c1nc2ccccc2c(=O)n1NC(=O)[C@@H]1[C@H]2[C@@H]3CC[C@@H](C3)[C@@H]12 [Example 59]" study_system="human KCNQ2 and KCNQ3 (Homo sapiens, UniProt O43525+O43526)" class_name=No

###

molecular target: human KCNQ2 and KCNQ3 (Homo sapiens, UniProt O43525+O43526); construct: expressed in transfected cells; host or cells: HEK293; assay: KCNQ 2/3 channel activation, thallium flux FLIPR assay (BTC-AM dye) in HEK293 cells; format: cell-based; settings: HEK293, maximum response relative to response of retigabine at 10 μM set at 100%; read-out: Max response
recorded_endpoint: Emax (%)

molecule=O=C(CC12CC3CC(CC(C3)C1)C2)Nn1c(-c2ccccc2)nc2ccccc2c1=O measure_unit=% quantitative_readout=103
molecule=O=C(CCC1CCCC1)Nn1c(C23CC4CC(CC2C4)C3)nc2ccccc2c1=O measure_unit=% quantitative_readout=171
molecule="CCc1nc2ccccc2c(=O)n1NC(=O)CC1C2CCCC1CCC2 (centres unmarked)" measure_unit=% quantitative_readout=148
molecule="O=C(Nn1c(-c2ccccc2)nc2ccccc2c1=O)[C@H]1C[C@@H]2C=C[C@H]1C2 (racemic)" measure_unit=% quantitative_readout=4.46
molecule=CCc1nc2sccc2c(=O)n1NC(=O)CC12CC3CC(CC(C3)C1)C2 measure_unit=% quantitative_readout=120
molecule=Cc1nc2sc3c(c2c(=O)n1NC(=O)CC12CC4CC(CC(C4)C1)C2)CCCC3 measure_unit=% quantitative_readout=81.8
molecule=Cc1nc2sc3c(c2c(=O)n1NC(=O)CC12CC4CC(CC(C4)C1)C2)CCCCC3 measure_unit=% quantitative_readout=89.8
molecule=O=C(CC12CC3CC(CC(C3)C1)C2)Nn1cnc2ccc(Cl)cc2c1=O measure_unit=% quantitative_readout=32.1
molecule="CC(C)c1nc2ccccc2c(=O)n1NC(=O)CC1CC2CCC1C2 (single isomer, unassigned; (-))" measure_unit=% quantitative_readout=136
molecule="O=C(CC1CC2CCC1C2)Nn1cnc2ccccc2c1=O (racemic)" measure_unit=% quantitative_readout=131
molecule="O=C(C[C@H]1C[C@@H]2CC[C@H]1C2)Nn1c(C2CC2)nc2cc(F)ccc2c1=O (racemic)" measure_unit=% quantitative_readout=145
molecule=O=C(CC12CC3CC(CC(C3)C1)C2)Nn1cnc2ccccc2c1=O measure_unit=% quantitative_readout=133
molecule=O=C(CC12CC3CC(CC(C3)C1)C2)Nn1c(COc2ccccc2)nc2ccccc2c1=O measure_unit=% quantitative_readout=118
molecule="O=C(Nn1c(-c2ccccc2)nc2ccccc2c1=O)[C@@H]1C[C@@H]2C=C[C@H]1C2 (racemic)" measure_unit=% quantitative_readout=65.4
molecule=CC(C)c1nc2ccccc2c(=O)n1NC(=O)CC12CC3CC(CC(Cl)(C3)C1)C2 measure_unit=% quantitative_readout=132
molecule="CC(C)c1nc2cc(-c3ccccc3F)sc2c(=O)n1NC(=O)CC1CC2CCC1C2 (racemic)" measure_unit=% quantitative_readout=17
molecule=O=C(CC12CC3CC(CC(C3)C1)C2)Nn1c(=O)[nH]c2ccccc2c1=O measure_unit=% quantitative_readout=93.3

###

biological target: human KCNQ2 and KCNQ3 (Homo sapiens, UniProt O43525+O43526); construct: expressed in transfected cells; host or cells: HEK293; test: KCNQ 2/3 channel activation, thallium flux FLIPR assay (BTC-AM dye) in HEK293 cells; format: cell-based; conditions: HEK293, maximum response relative to response of retigabine at 10 μM set at 100%; read-out: Max response
recorded_endpoint: Emax (%)

compound="CC(C)c1nc2ccccc2c(=O)n1NC(=O)[C@@H]1C[C@@H]2CC[C@H]1C2 (racemic)" study_system="human KCNQ2 and KCNQ3 (Homo sapiens, UniProt O43525+O43526)" recorded_endpoint=Emax measure_unit=% quantitative_readout=124
compound=O=C(CC12CC3CC(CC(Cl)(C3)C1)C2)Nn1c(C2CC2)nc2cc(F)ccc2c1=O study_system="human KCNQ2 and KCNQ3 (Homo sapiens, UniProt O43525+O43526)" recorded_endpoint=Emax measure_unit=% quantitative_readout=116
compound="CC(C)c1nc2ccccc2c(=O)n1NC(=O)CC1CC2C=CC1C2 (racemic)" study_system="human KCNQ2 and KCNQ3 (Homo sapiens, UniProt O43525+O43526)" recorded_endpoint=Emax measure_unit=% quantitative_readout=163
compound="O=C(C[C@@H]1C[C@@H]2C=C[C@H]1C2)Nn1c(-c2ccccc2)nc2ccccc2c1=O (racemic)" study_system="human KCNQ2 and KCNQ3 (Homo sapiens, UniProt O43525+O43526)" recorded_endpoint=Emax measure_unit=% quantitative_readout=130

###

Some molecules, each annotated with its measured Emax.
target: human KCNQ2 and KCNQ3 (Homo sapiens, UniProt O43525+O43526); construct: expressed in transfected cells; host or cells: HEK293; assay: KCNQ 2/3 channel activation, thallium flux FLIPR assay (BTC-AM dye) in HEK293 cells; format: cell-based; conditions: HEK293, maximum response relative to response of retigabine at 10 μM set at 100%; read-out: Max response
recorded_endpoint: Emax (%)

molecule="CC(C)c1nc2ccccc2c(=O)n1NC(=O)CC1C2CCCC1CCC2 (stereo not drawn)" quantitative_readout=158
molecule=Cc1sc2nc(C)n(NC(=O)CC34CC5CC(CC(C5)C3)C4)c(=O)c2c1-c1ccccc1 quantitative_readout=130
molecule=Cc1sc2nc(C)n(NC(=O)CC34CC5CC(CC(C5)C3)C4)c(=O)c2c1C quantitative_readout=65.2
molecule="O=C(CC1CC2CCC1C2)Nn1c(-c2ccccc2)nc2ccccc2c1=O (racemic)" quantitative_readout=176
molecule=CCc1nc2ccccc2c(=O)n1NC(=O)C12CC3CC(CC(C3)O1)C2 quantitative_readout=5.5
molecule=CC(C)Sc1nc2sc(-c3ccccc3)cc2c(=O)n1NC(=O)CC12CC3CC(CC(C3)C1)C2 quantitative_readout=19.2

###

Some compounds, each annotated with its measured pEC50.
molecular target: human KCNQ2 and KCNQ3 (Homo sapiens, UniProt O43525+O43526); assay: KCNQ 2/3 channel activation, thallium flux FLIPR assay (BTC-AM dye) in HEK293 cells; details: HEK293 cells stably expressing human KCNQ2 and KCNQ3; compound incubated 4 minutes; Tl+ flux fluorescence
pEC50: −log10 of the molar value.
recorded_endpoint: pEC50

compound="CC(C)c1nc2ccccc2c(=O)n1NC(=O)[C@@H]1[C@H]2[C@@H]3CC[C@@H](C3)[C@@H]12 [Example 59]" recorded_endpoint=pEC50 comparative_sign=< quantitative_readout=4.50
compound="O=C(CC12CC3CC(CC(Cl)(C3)C1)C2)Nn1c(C2CC2)nc2cc(C(F)(F)F)ccc2c1=O [Example 50]" recorded_endpoint=pEC50 comparative_sign=< quantitative_readout=4.50
compound="O=C(Nn1c(-c2ccccc2)nc2ccccc2c1=O)[C@@H]1[C@H]2[C@@H]3CC[C@@H](C3)[C@@H]12 [Example 39]" recorded_endpoint=pEC50 comparative_sign=< quantitative_readout=4.52
compound="CC(C)Sc1nc2sc(-c3ccccc3)cc2c(=O)n1NC(=O)CC12CC3CC(CC(C3)C1)C2 [Example 40]" recorded_endpoint=pEC50 comparative_sign=< quantitative_readout=4.52
compound="CCc1nc2ccccc2c(=O)n1NC(=O)[C@@H]1[C@H]2[C@@H]3CC[C@@H](C3)[C@@H]12 [Example 58]" recorded_endpoint=pEC50 comparative_sign=< quantitative_readout=4.50
compound="O=C(CC1CC2CCC1C2)Nn1cnc2ccccc2c1=O (racemic) [Example 10]" recorded_endpoint=pEC50 comparative_sign== quantitative_readout=5.31
compound="O=C(CC12CC3CC(CC(C3)C1)C2)Nn1c(COc2ccccc2)nc2ccccc2c1=O [Example 25]" recorded_endpoint=pEC50 comparative_sign== quantitative_readout=5.52
compound="O=C(CC12CC3CC(CC(C3)C1)C2)Nn1cnc2ccsc2c1=O [Example 26]" recorded_endpoint=pEC50 comparative_sign== quantitative_readout=5.57
compound="Cc1nc2sc3c(c2c(=O)n1NC(=O)CC12CC4CC(CC(C4)C1)C2)CCCC3 [Example 44]" recorded_endpoint=pEC50 comparative_sign== quantitative_readout=5.70
compound="CCc1nc2ccccc2c(=O)n1NC(=O)C12CC3CC(CC(C3)O1)C2 [Example 54]" recorded_endpoint=pEC50 comparative_sign=< quantitative_readout=4.50
compound="Cc1nc2ccccc2c(=O)n1NC(=O)CC12CC3CC(CC(C3)C1)C2 [Example 8]" recorded_endpoint=pEC50 comparative_sign== quantitative_readout=6.16
compound="O=C(CC12CC3CC(CC(C3)C1)C2)Nn1cnc2ccccc2c1=O [Example 7]" recorded_endpoint=pEC50 comparative_sign== quantitative_readout=6.94
compound="Cc1nc2sc3c(c2c(=O)n1NC(=O)CC12CC4CC(CC(C4)C1)C2)CCC3 [Example 45]" recorded_endpoint=pEC50 comparative_sign=< quantitative_readout=4.50
compound="O=C(C[C@@H]1C[C@@H]2C=C[C@H]1C2)Nn1c(-c2ccccc2)nc2ccccc2c1=O (racemic) [Example 19]" recorded_endpoint=pEC50 comparative_sign== quantitative_readout=5.64
compound="CC(C)c1nc2ccccc2c(=O)n1NC(=O)CC1CC2CCC1C2 (single isomer, unassigned; (-)) [Example 29]" recorded_endpoint=pEC50 comparative_sign== quantitative_readout=7.78
compound="CC(C)c1nc2ccccc2c(=O)n1NC(=O)CC1CC2CCC1C2 (single isomer, unassigned; (+)) [Example 30]" recorded_endpoint=pEC50 comparative_sign== quantitative_readout=7.32
